tested on: HEK-293T; experiment: Multiplex assay against HEK293T; assay type: toxicity, cell-based; details: human, 48 h, 10 µM, compound concentration 10 uM, replicate 2
measure name: Population Fragmented Nuclei (%)

These recorded examples may help you get a feel for the data.
Reported Population Fragmented Nuclei (%) for HEK-293T, given Cc1cc(C)cc(-c2cnc3cc(Cl)c(-c4cccc(O)c4)cc3c2OCCCN)c1 ?
15%

Reported Population Fragmented Nuclei (%) for HEK-293T, given Cc1c(-c2ccc(O)cc2)n(Cc2ccc(OCCN3CCCCCC3)cc2)c2ccc(O)cc12 ?
20%

Reported Population Fragmented Nuclei (%) for HEK-293T, given CN(C)C(=O)N[C@H]1CC[C@H](CCN2CCN(c3cccc(Cl)c3Cl)CC2)CC1.Cl [CARIPRAZINE HYDROCHLORIDE] ?
7%

Reported Population Fragmented Nuclei (%) for HEK-293T, given COc1cc(-n2cnc3cc(-c4ccc(Cl)cc4)sc3c2=O)ccc1OCCN1CCCC1 ?
21%

Reported Population Fragmented Nuclei (%) for HEK-293T, given c1cn2cc(-c3ccc4cn[nH]c4c3)nc(Nc3ccc(N4CCOCC4)cc3)c2n1 ?
47%

Reported Population Fragmented Nuclei (%) for HEK-293T, given CN1CCN(CCOc2cc(OC3CCOCC3)c3c(Nc4c(Cl)ccc5c4OCO5)ncnc3c2)CC1 ?
6%

Further cases:
Reported Population Fragmented Nuclei (%) for HEK-293T, given OC1(c2ccc(Cl)cc2)CCN(Cc2c[nH]c3ccccc23)CC1 ?
19%

Reported Population Fragmented Nuclei (%) for HEK-293T, given C[C@@]1(C(=O)Nc2ccc(F)nc2)CCCN1c1nc(Nc2cc(C3CC3)n[nH]2)c2cccn2n1 ?
4%

Data credit: ChEMBL document CHEMBL4689842
